- ASSAY SYSTEM: BRDT-BD2 (Homo sapiens (Human))
- ASSAY OVERVIEW: AlphaScreen bromodomain proximity assay (competition with biotinylated (+)-JQ1), BRDT-BD2
- Format: binding

| MOLECULE | UNIT TAG | RELATIONAL OPERATOR | IC50 |
| --- | --- | --- | --- |
| COc1ccc(NC(=O)c2ccc3c(c2)c(-c2cc4ccccc4n2C)nn3C)cc1Cl | nM | = | 164 |
| COc1ccc(NC(=O)c2ccc3c(c2)c(-c2cc4ccccc4n2C)nn3C)cc1C(F)(F)F | nM | = | 626 |
| Cc1ccc(NC(=O)c2ccc3c(c2)c(-c2ccc(N)cc2C)nn3C)cc1NS(C)(=O)=O | nM | = | 67 |
| CNC(=O)c1cccc(NC(=O)c2ccc3c(c2)c(-c2ccc(N)cc2C)nn3C)c1 | nM | = | 29 |
| COc1ccc(NC(=O)c2ccc3c(c2)c(-c2ccc(N)cc2C)nn3C)cc1NC(=O)c1ccccc1 | nM | = | 35 |
| COc1ccc(NC(=O)c2ccc3c(c2)c(-c2cc4ccccc4n2C)nn3C)cc1C#N | nM | = | 168 |
| CC(=O)Nc1cc(NC(=O)c2ccc3c(c2)c(-c2ccc(Cl)cc2Cl)nn3C)ccc1C | nM | = | 320 |
| CNC(=O)c1ccc(C(=O)Nc2cc(NC(=O)c3ccc4c(c3)c(-c3cc5ccccc5n3C)nn4C)ccc2C)cc1 | nM | = | 13 |
| CNC(=O)c1ccc2c(c1)c(-c1cc3ccccc3n1C)nn2C | nM | = | 261 |
| Cc1ccc(NC(=O)c2ccc3c(c2)c(-c2ccc(N)nc2)nn3C)cc1NC(=O)[C@H]1CC[C@@H](N)CC1 | nM | = | 51 |
| CNC(=O)c1cc(NC(=O)c2ccc3c(c2)c(-c2ccc(N)cc2C)nn3C)ccc1C | nM | = | 18 |
| Cc1cc(N)ccc1-c1nn(C)c2ccc(-c3cccnc3)cc12 | nM | > | 10000 |
| COc1ccc(NC(=O)c2ccc3c(c2)c(-c2cc4ccccc4n2C)nn3C)cc1Br | nM | = | 274 |
| Cn1nc(-c2ccc(N)nc2)c2cc(C(=O)NC3CCNCC3)ccc21 | nM | > | 200 |
| COc1ccc(NC(=O)c2ccc3c(c2)c(-c2cc4ccccc4n2C)nn3C)cc1C | nM | = | 111 |
| Cc1ccc(NC(=O)c2ccc3c(c2)c(-c2ccc(N)nc2)nn3C)cc1NC(=O)C1CCN(C)CC1 | nM | = | 58 |
